# target-desc: T1, BmExd1 full-length (UniProt H9IUR0 1-315)
# T1 sequence: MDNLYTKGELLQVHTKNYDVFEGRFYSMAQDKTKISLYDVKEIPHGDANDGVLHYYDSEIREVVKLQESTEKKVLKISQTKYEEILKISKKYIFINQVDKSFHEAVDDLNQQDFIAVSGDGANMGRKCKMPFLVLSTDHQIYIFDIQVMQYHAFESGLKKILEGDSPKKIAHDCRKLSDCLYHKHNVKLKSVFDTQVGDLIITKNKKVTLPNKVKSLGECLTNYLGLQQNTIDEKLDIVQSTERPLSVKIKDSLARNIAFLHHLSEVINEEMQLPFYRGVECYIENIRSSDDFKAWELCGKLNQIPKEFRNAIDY
# assay-info: ITC
observable: pKd
One number for each entry, as −log10 of the molar value.

Ask: I am curious: what pKd value has been reported for GGGGUAUUCUUUAAUUAUUUC (ssRNA) [ITC RNA (21 nt)] ?
Result: 4.57

Attribution: paper PMC4712191
